Reported caspase activation values for the following compounds.
- assay.info: caspase 3/7 activation in MEF A1-2A-BIM cells, primary screen, A1 inhibitor project, cell-based, luminescence, HTS (AID 2462)
- experimental.parameters: Caspase-Glo 3/7 luminescence, 3 h, active compounds read high, percent of clofoctol response, vehicle zero, concentration not given here
About 220 (0.067%) of roughly 330,000 compounds were called active. This excerpt belongs to a sample that is enriched for actives.

{"item.smiles": "Cc1[nH]n(-c2ccccc2)c(=O)c1/C=N/NC(=O)c1ccoc1C", "measurement.unit": "%", "caspase activation": -3.41}
{"item.smiles": "COc1ccc(CNC(=O)CN2CCC(n3nnc4cc(F)ccc43)CC2)cc1", "measurement.unit": "%", "caspase activation": -0.421}
{"item.smiles": "CC(C)n1cnc2c(NCc3ccccc3)cc(N[C@@H](CO)Cc3ccccc3)cc21", "measurement.unit": "%", "caspase activation": -2.12}
{"item.smiles": "COc1cccc(NC(=O)CN(C)C(=O)/C=C/c2cc(OC)ccc2OC)c1", "measurement.unit": "%", "caspase activation": -0.126}
{"item.smiles": "Cc1ccc(-n2[nH]c(C)c(/C=N/NC(=O)c3cccc([N+](=O)[O-])c3)c2=O)cc1C", "measurement.unit": "%", "caspase activation": -4.49}
{"item.smiles": "Cc1cc(C(C)(C)C)cc(S(=O)(=O)Nc2ccc(C(=O)O)cc2)c1C", "measurement.unit": "%", "caspase activation": -0.667}
{"item.smiles": "Cc1c(Cl)cccc1NC(=O)CSc1ccc(-c2cccnc2)nn1", "measurement.unit": "%", "caspase activation": 0.424}
{"item.smiles": "COc1ccc(CNC(=O)c2ccc(NS(=O)(=O)c3ccc4[nH]c(=O)[nH]c4c3)cc2)cc1OC", "measurement.unit": "%", "caspase activation": -0.468}
{"item.smiles": "CSCC[C@H](NC(=O)NCCc1ccc(F)cc1)C(=O)O", "measurement.unit": "%", "caspase activation": 0.319}
{"item.smiles": "CN(C)c1ccc(Nc2c3c4c(cccc4n(C)c2=O)C(=O)c2ccccc2-3)cc1", "measurement.unit": "%", "caspase activation": -0.124}

----------
- assay.info: caspase 3/7 activation in MEF A1-2A-BIM cells, primary screen, A1 inhibitor project, cell-based, luminescence, HTS (AID 2462)
- experimental.parameters: Caspase-Glo 3/7 luminescence, 3 h, active compounds read high, percent of clofoctol response, vehicle zero, concentration not given here
The whole screen tested about 330,000 compounds, of which about 220 (0.067%) were called active. The sample holds actives, similar compounds and a random draw of the others, so the mix is not that of the screen.
Catalogue of caspase activation values

{"compound": "COc1ccc(Nc2ccc([N+](=O)[O-])cn2)cn1", "measurement.unit": "%", "caspase activation": -0.342}
{"compound": "Cc1cc(OCCN2CCCC2)cc(C(C)C)c1", "measurement.unit": "%", "caspase activation": 0.0914}
{"compound": "CCc1ccc(OCC2c3cc(OC)c(OC)cc3CCN2C(C)=O)cc1 (centres undefined)", "measurement.unit": "%", "caspase activation": 0.768}
{"compound": "Cn1c(C(=O)O)ccc1S(=O)(=O)N(Cc1ccccc1)Cc1ccccc1", "measurement.unit": "%", "caspase activation": -0.442}
{"compound": "N#Cc1c(-c2ccc(F)cc2)cc(C2CC2)nc1SCC(=O)c1cccs1", "measurement.unit": "%", "caspase activation": -0.105}
{"compound": "Cc1c2cn[nH]c(=O)c2c(C)n1Cc1ccc(F)cc1", "measurement.unit": "%", "caspase activation": -0.558}
{"compound": "COC(=O)CNC(=O)c1ccc2c(c1)S(=O)(=O)c1ccccc1C2=O", "measurement.unit": "%", "caspase activation": -0.413}
{"compound": "CC[C@H]1CN2CCc3cc(OC)c(OC)cc3[C@@H]2C[C@@H]1C[C@H]1NCCc2cc(OC)c(OC)cc21", "measurement.unit": "%", "caspase activation": 7.26}
{"compound": "O=C(O)CC1S/C(=N\\N=C/c2ccccc2O)N(c2ccc(O)cc2)C1=O (centres undefined)", "measurement.unit": "%", "caspase activation": 0.687}
{"compound": "Cc1ccc(S(=O)(=O)N2CCN(C(=O)CN3C(=O)NC(C)(c4ccc(Cl)cc4)C3=O)CC2)c(C)c1 (centres undefined)", "measurement.unit": "%", "caspase activation": -0.688}
{"compound": "O=C(COc1ccc([N+](=O)[O-])cc1Cl)Nc1ccc2[nH]c(=O)[nH]c2c1", "measurement.unit": "%", "caspase activation": -0.19}
{"compound": "CC1CCc2[nH]c3ccc(C(=O)N(C)CC(=O)Nc4cccc(F)c4)cc3c2C1 (centres undefined)", "measurement.unit": "%", "caspase activation": 0.268}
{"compound": "CC12CCC(C(=O)N(NC(=O)c3ccccc3O)C1=O)C2(C)C (centres undefined)", "measurement.unit": "%", "caspase activation": 1.44}
{"compound": "CC(C)N(C(=O)CN1CCN(S(=O)(=O)c2ccc(Br)s2)CC1)C(C)C", "measurement.unit": "%", "caspase activation": 1.33}

All values here come from PubChem BioAssay AID2462.
